Tested on: Clostridium perfringens
Assay: In Vitro Anti Bacterial Activity (MIC90) against 90% of tested clinical Isolates of Clostridium perfringens(27)
Format: functional
Recorded MIC90, one value per entry.

# MOL, TESTED SYSTEM, MIC90
measured = [
    ("C[C@@H](O)[C@H]1C(=O)N2C(C(=O)O)=C(CN3C[C@H](O)C[C@H]3C(N)=O)S[C@H]12", "Clostridium perfringens", "0.25 µg/mL"),
    ("C[C@@H](O)[C@H]1C(=O)N2C(C(=O)O)=C(CN(C)[C@@H](C)C(N)=O)S[C@H]12", "Clostridium perfringens", "0.5 µg/mL"),
    ("C[C@@H](O)[C@H]1C(=O)N2C(C(=O)O)=C(CN(C)CC(N)=O)S[C@H]12", "Clostridium perfringens", "0.5 µg/mL"),
    ("C[C@@H](O)[C@H]1C(=O)N2C(C(=O)O)=C(CN3CCC[C@@H]3C(N)=O)S[C@H]12", "Clostridium perfringens", "1 µg/mL"),
    ("C[C@@H](O)[C@H]1C(=O)N2C(C(=O)O)=C(CN3CCC[C@H]3C(N)=O)S[C@H]12", "Clostridium perfringens", "1 µg/mL"),
]
